Provenance of the data: patent US20240391887A1

target: VASH1 (Homo sapiens); assay: Standardized in vitro detyrosination ELISA based assay; format: biochemical; design: poly-histidine tag; made in house; host or cells: bacteria (IPTG induction); conditions: VASH1-mediated tubulin detyrosination, FIG. 13.A; read-out: in vitro IC50
recordedEndpoint: IC50 (nM)
Answer in nM, number only, no unit symbol.

q: I have this compound here, CCOc1ccc(C[C@H](NC(=O)[C@H]2O[C@@H]2C(=O)N[C@H](Cc2ccc(OCC)cc2)C(=O)O)C(=O)O)cc1 [IBMT-11] , and I need its recorded IC50.
a: 600

---

Recorded pIC50 by entry
molecular target: VASH1 (Homo sapiens, UniProt Q7L8A9); experiment: Standardized in vitro detyrosination ELISA based assay; format: biochemical; design: poly-histidine tag; made in house; host or cells: bacteria (IPTG induction); conditions: calculated in vitro IC50; read-out: IC50
Sequence (Q7L8A9 whole entry): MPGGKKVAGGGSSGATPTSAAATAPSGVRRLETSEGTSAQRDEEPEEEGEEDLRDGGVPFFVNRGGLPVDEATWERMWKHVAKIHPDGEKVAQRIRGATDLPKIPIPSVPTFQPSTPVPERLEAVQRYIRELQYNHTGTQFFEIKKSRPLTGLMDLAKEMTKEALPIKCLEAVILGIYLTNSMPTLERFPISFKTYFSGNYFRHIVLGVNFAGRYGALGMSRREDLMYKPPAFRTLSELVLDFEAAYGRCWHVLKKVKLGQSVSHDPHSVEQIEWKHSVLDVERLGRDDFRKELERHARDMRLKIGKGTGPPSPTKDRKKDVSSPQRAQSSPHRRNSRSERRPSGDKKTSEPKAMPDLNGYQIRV
Sequence (Q8N300 whole entry partner): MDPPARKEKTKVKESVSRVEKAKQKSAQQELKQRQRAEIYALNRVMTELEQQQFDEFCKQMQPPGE
Units for pIC50: none; it is -log10 of a concentration expressed in mol/L.

{"compound": "O=C(O)CCC[C@@H](NC(=O)[C@H]1O[C@@H]1C(=O)N[C@@H](Cc1ccc(OCc2ccccc2)cc1)C(=O)O)C(=O)NCCc1ccccc1 [IBMT-29 hydro]", "endpointResult": 6.52}
{"compound": "O=C([O-])CCC[C@H](NC(=O)[C@H]1O[C@@H]1C(=O)N[C@@H](Cc1ccc(OCc2ccccc2)cc1)C(=O)[O-])C(=O)NCCc1ccccc1.[Na+].[Na+]", "endpointResult": 6.52}
{"compound": "O=C(O)[C@H](Cc1ccc(O)cc1)NC(=O)[C@H]1O[C@@H]1C(=O)N[C@@H](Cc1ccc(O)cc1)C(=O)O", "endpointResult": 5.92}

# evaluate next
q: I have this compound here, `CCOc1ccc(C[C@H](NC(=O)[C@H]2O[C@@H]2C(=O)NCCCCC(=O)O)C(=O)O)cc1` , and I need its recorded pIC50.
a: 5.41

---

target: VASH1 (Homo sapiens); assay: Standardized in vitro detyrosination ELISA based assay; type: biochemical; set-up: poly-histidine tag; made in house; host or cells: bacteria (IPTG induction); details: ratio IC50(compound)/IC50(LV80)
recordedEndpoint: Fold change/ LV-80
Reply with the value as a number alone.

q: I have this compound here, O=C(O)[C@H](Cc1ccc(OCc2ccccc2)cc1)NC(=O)[C@H]1O[C@@H]1C(=O)N[C@@H](Cc1ccc(OCc2ccccc2)cc1)C(=O)O [Synthé Mix hydro] , and I need its recorded Fold change/ LV-80.
a: 2

q: Then this compound: CCOc1ccc(C[C@H](NC(=O)[C@H]2O[C@@H]2C(=O)NCCCCC(=O)O)C(=O)O)cc1 [IBMT-26]
a: 13

q: Then this compound: O=C([O-])CCC[C@H](NC(=O)[C@H]1O[C@@H]1C(=O)N[C@@H](Cc1ccc(OCc2ccccc2)cc1)C(=O)[O-])C(=O)NCCc1ccccc1.[Na+].[Na+] [IBMT-34]
a: 1

q: Then this compound: O=C(O)[C@H](Cc1ccc(O)cc1)NC(=O)[C@H]1O[C@@H]1C(=O)N[C@@H](Cc1ccc(O)cc1)C(=O)O [LV-59]
a: 4

q: Then this compound: O=C(O)CCC[C@@H](NC(=O)[C@H]1O[C@@H]1C(=O)N[C@@H](Cc1ccc(OCc2ccccc2)cc1)C(=O)O)C(=O)NCCc1ccccc1 [IBMT-29 hydro]
a: 1

---

biological target: UniProtKB Q7L8A9; experiment: Standardized in vitro detyrosination ELISA based assay; assay type: biochemical; design: poly-histidine tag; made in house; host or cells: bacteria (IPTG induction); conditions: ratio IC50(compound)/IC50(LV80)
Recorded Fold change/ LV-80 by entry
Reply with the value as a number alone.

q: I have this molecule here, `CCOC(=O)[C@H](Cc1ccc(OCc2ccccc2)cc1)NC(=O)[C@H]1O[C@@H]1C(=O)N[C@H](CCCC(=O)O)C(=O)NCCc1ccccc1` , and I need its recorded Fold change/ LV-80.
a: 14

q: Then this molecule: `CCOc1ccc(C[C@H](NC(=O)[C@H]2O[C@@H]2C(=O)N[C@H](Cc2ccc(OCC)cc2)C(=O)O)C(=O)O)cc1`
a: 2

q: Then this molecule: CC(C)(C)ONC(=O)CCC[C@@H](NC(=O)[C@H]1O[C@@H]1C(=O)N[C@@H](Cc1ccc(OCc2ccccc2)cc1)C(=O)O)C(=O)NCCc1ccccc1 [IBMT-31 hydro]
a: 13

---

Recorded IC50 by entry
biological target: VASH1 (Homo sapiens, UniProt Q7L8A9); experiment: Standardized in vitro detyrosination ELISA based assay; assay type: biochemical; parameters: poly-histidine tag; made in house; host or cells: bacteria (IPTG induction); details: calculated in vitro IC50; read-out: IC50
Answer in µM, number only, no unit symbol.

{"compound": "O=C(O)[C@H](Cc1ccc(OCc2ccccc2)cc1)NC(=O)[C@H]1O[C@@H]1C(=O)N[C@@H](Cc1ccc(OCc2ccccc2)cc1)C(=O)O [Synthé Mix hydro]", "IC50 [µM]": 0.6}

q: I have this compound here, CC(C)(C)ONC(=O)CCC[C@@H](NC(=O)[C@H]1O[C@@H]1C(=O)N[C@@H](Cc1ccc(OCc2ccccc2)cc1)C(=O)O)C(=O)NCCc1ccccc1 [IBMT-31 hydro] , and I need its recorded IC50.
a: 3.9

q: Then this compound: CCOC(=O)[C@H](Cc1ccc(OCc2ccccc2)cc1)NC(=O)[C@H]1O[C@@H]1C(=O)N[C@H](CCCC(=O)O)C(=O)NCCc1ccccc1 [IBMT-29]
a: 4.2
